Test system: MS2 coat protein
assay-info: apparent KD of MS2 coat protein, switch ON state; designed switch direction (-1 OFF switch, 1 ON switch): -1; higher = weaker reporter binding
recorded-conditions: FMN input: 0 or 200 uM; Eterna round: R93 (includes R88 designs)
measured-metric: apparent KD of MS2 coat protein

chain_sequence="AAGAAGUGAGGAUAUCGAAGACAGACGAAAAGUCUGUCAAACGAGAAGGCACAUGAGGAUCACCCAUGUGGAAA [What have we learned so far? 64% 4]" target_of_assay="MS2 coat protein" measured_metric="apparent KD of MS2 coat protein" obs_value="30.5 nM"

**Query** Request the reported apparent KD of MS2 coat protein associated with AAAAAACAUGAGGAUCACCCAUGUAAGGAUAUGCUAAAAAACGCAAAAAAAGCGAAUAGCAGAAGGUACAAAAG [Mat - Exclusion 1 - Eli mod - D81]
**Result** 36.4 nM

**Query** Subsequent entry: AAAAAUUGAGGAUAUACAUGAGGAUCACCCAUGUUAGAACAAAAAAAAGGGAAAGAAAGUAGAAGGCAAUAAAA [Ex 3 May 26]
**Result** 20 nM

**Query** Another sequence to check: GAAAAGGCAGGAUAUGCAGGAUAUAGAAGGAGGAUAUAGAGACAUGAGGAUCACCCAUGUAGAAGGGCCAAAAG [salish99-ex2-11]
**Result** 42.6 nM

**Query** // query: AUAGUACAUGAGGAUCACCCAUGUCAGGAUAUUGGAUAUGACAUGAAAAAAAUGUUAACGAGAAGGGACUAUAA [EX1 Malc#17]
**Result** 58.6 nM

**Query** What about AACUAGUCAGGAUAUGCGAACAGAUAAUAAGCUACACAAAAGCAGAAGGGACAUGAGGAUCACCCAUGUAAAUA [JR_Exc004_Sub502] ?
**Result** 39.3 nM

###

Test system: MS2 coat protein
assay-info: apparent KD of MS2 coat protein; designed switch direction (-1 OFF switch, 1 ON switch): 1; higher = weaker reporter binding
recorded-conditions: Eterna round: R95; input ligand: none
Catalogue of sequences with associated apparent KD of MS2 coat protein
Enter your answer as a number in µM; do not include the unit.

Please review the following examples before continuing.
chain_sequence="AGGAAGGAGACUGAGGAUAUCGUUGAAAGGACAUGAGGAUCACCCAUGUGUAUAGGAUUGGAGAACGAGAAGGCAGAGGAGUGGA [JR_SS2_Sub045] (puzzle: Same State 2)" measured_metric="apparent KD of MS2 coat protein" obs_value=0.0712
chain_sequence="GGAGCCGGCACCGAGGAUAUUUAUAUUAAAACAUGAGGAUCACCCAUGUAGGCCAGAAGGCCUUGGGAGAAGGCGGAUCGGCUCG [Xeonanis - 5] (puzzle: Same State 2)" measured_metric="apparent KD of MS2 coat protein" obs_value=0.0796
chain_sequence="UCUUGGUUUUUGCUCGUUUUUUGUGUUGAACAUGAGGAUCACCCAUGUAUUGUACGAUCCGGUUUAGUGAUGGUCCG [JMF 63] (puzzle: Sensor for hsa-mir-208a)" measured_metric="apparent KD of MS2 coat protein" obs_value=0.0421
chain_sequence="AAAAUACAUGAGGAUCACCCAUGUAGAAACUACACAGGAUAUCGGACGGCUGUAGCCAAACGAGAAGGGUGAACCC [Ramazaza] (puzzle: Same State 1)" measured_metric="apparent KD of MS2 coat protein" obs_value=0.092

# input for lookup
**Query** Fill in the recorded apparent KD of MS2 coat protein for this sequence, with MS2 coat protein as test system: UACAAUCUAUCUGAGGAUAUCAUGAAGAAAACAUGAGGAUCACCCAUGUGCAGGAGAACUGCAAAUGAGAAGGCAGAUAGAUUGU [Mat - Same State 2 - Mod - D1] (puzzle: Same State 2)
**Result** 0.0134
